Reported Ki, Estrogen receptor (Homo sapiens, UniProt P03372).
Your answer should be a plain number; it is taken to be in µM.

Some solved entries appear below for comparison.
O=C(O)CCCCCCC(=O)Nc1ccc(C2=C(c3ccc(O)cc3)C3CC(S(=O)(=O)Oc4ccccc4C(F)(F)F)C2O3)cc1 (racemic) = 3.87
COC(=O)CCCCCCC(=O)Nc1ccc(OS(=O)(=O)C2CC3OC2C(c2ccc(O)cc2)=C3c2ccc(O)cc2)cc1 (configuration not stated) = 0.0599

Next, consider the following compound.
Requested field: Ki. Item: O=C(O)CCCCCCC(=O)Nc1ccc(C2=C(c3ccc(O)cc3)C3CC(S(=O)(=O)Oc4ccc(O)cc4)C2O3)cc1 (racemic)
0.133

###

Measured Efficacy of individual entries
- Target system: Estrogen receptor (Homo sapiens)
- Sequence (P03372 whole entry): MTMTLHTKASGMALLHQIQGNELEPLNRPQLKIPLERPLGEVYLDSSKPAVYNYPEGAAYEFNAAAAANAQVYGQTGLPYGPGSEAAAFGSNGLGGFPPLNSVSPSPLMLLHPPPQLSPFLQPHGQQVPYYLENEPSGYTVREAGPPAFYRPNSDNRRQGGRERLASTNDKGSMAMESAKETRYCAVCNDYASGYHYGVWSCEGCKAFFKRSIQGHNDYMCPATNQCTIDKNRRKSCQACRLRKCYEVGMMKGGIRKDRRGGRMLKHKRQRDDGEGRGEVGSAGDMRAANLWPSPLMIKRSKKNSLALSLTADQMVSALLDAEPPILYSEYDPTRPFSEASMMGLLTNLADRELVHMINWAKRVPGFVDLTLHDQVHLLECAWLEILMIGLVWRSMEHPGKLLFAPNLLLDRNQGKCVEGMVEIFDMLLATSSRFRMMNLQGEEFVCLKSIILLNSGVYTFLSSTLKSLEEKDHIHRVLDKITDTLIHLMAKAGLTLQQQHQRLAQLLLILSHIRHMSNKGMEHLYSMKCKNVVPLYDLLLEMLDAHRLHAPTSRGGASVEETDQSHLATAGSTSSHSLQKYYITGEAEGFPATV
- Test summary: Antagonist activity at ER-alpha (unknown origin) transfected in HEK293T cells assessed as inhibition of transcriptional activity after 24 hrs by luciferase reporter gene assay relative to 17-beta estradiol
- Type: cell-based
- Measurement setup: HEK-293T
Respond numerically; units are % and should not be typed.

O=C(CCCCCCC(=O)Nc1ccc(C2=C(c3ccc(O)cc3)C3CC(S(=O)(=O)Oc4ccc(Br)cc4)C2O3)cc1)NO (racemic) = 101
Cc1cccc(OS(=O)(=O)C2CC3OC2C(c2ccc(NC(=O)CCCCCCC(=O)O)cc2)=C3c2ccc(O)cc2)c1 (racemic) = 43
O=C(O)CCCCCCC(=O)Nc1ccc(C2=C(c3ccc(O)cc3)C3CC(S(=O)(=O)Oc4ccc(Br)cc4)C2O3)cc1 (racemic) = 75

GET /values?readout=Efficacy&item= O=C(CCCCCCC(=O)Nc1ccc(C2=C(c3ccc(O)cc3)C3CC(S(=O)(=O)Oc4ccccc4)C2O3)cc1)NO (racemic)
77

Then Cc1ccccc1OS(=O)(=O)C1CC2OC1C(c1ccc(NC(=O)CCCCCCC(=O)NO)cc1)=C2c1ccc(O)cc1 (racemic) ?
126

Also need Cc1cccc(OS(=O)(=O)C2CC3OC2C(c2ccc(NC(=O)CCCCCCC(=O)NO)cc2)=C3c2ccc(O)cc2)c1 (racemic) , thanks.
115

Repeat for the following compound: COC(=O)CCCCCCC(=O)Nc1cccc(OS(=O)(=O)C2CC3OC2C(c2ccc(O)cc2)=C3c2ccc(O)cc2)c1 (centres undefined)
111

Would you mind doing COc1ccccc1OS(=O)(=O)C1CC2OC1C(c1ccc(NC(=O)CCCCCCC(=O)O)cc1)=C2c1ccc(O)cc1 (racemic) as well?
104

Ok, now O=C(O)CCCCCCC(=O)Nc1ccc(C2=C(c3ccc(O)cc3)C3CC(S(=O)(=O)Oc4ccccc4)C2O3)cc1 (racemic)
36

Repeat with COc1ccc(OS(=O)(=O)C2CC3OC2C(c2ccc(NC(=O)CCCCCCC(=O)O)cc2)=C3c2ccc(O)cc2)cc1 (racemic)
40

Would you kindly repeat that for Cc1ccc(OS(=O)(=O)C2CC3OC2C(c2ccc(NC(=O)CCCCCCC(=O)O)cc2)=C3c2ccc(O)cc2)cc1 (racemic) ?
36

###

Efficacy reference
- Target system: Estrogen receptor beta (Homo sapiens)
- Sequence (Q92731 whole entry): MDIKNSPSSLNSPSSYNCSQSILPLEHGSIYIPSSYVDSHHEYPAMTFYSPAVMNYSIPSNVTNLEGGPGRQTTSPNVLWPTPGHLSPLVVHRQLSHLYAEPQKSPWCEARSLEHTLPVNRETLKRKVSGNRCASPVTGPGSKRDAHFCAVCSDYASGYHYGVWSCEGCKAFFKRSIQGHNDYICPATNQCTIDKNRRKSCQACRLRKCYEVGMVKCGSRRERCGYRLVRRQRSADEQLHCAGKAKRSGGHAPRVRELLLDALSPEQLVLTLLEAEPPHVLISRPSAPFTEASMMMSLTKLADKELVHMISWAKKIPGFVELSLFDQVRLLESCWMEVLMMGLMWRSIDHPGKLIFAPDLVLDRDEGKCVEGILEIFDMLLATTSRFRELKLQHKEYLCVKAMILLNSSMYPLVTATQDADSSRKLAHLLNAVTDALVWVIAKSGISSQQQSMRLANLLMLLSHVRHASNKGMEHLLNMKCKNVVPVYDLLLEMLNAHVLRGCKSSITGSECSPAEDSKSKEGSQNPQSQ
- Test summary: Antagonist activity at ER-beta (unknown origin) transfected in HEK293T cells assessed as inhibition of transcriptional activity after 24 hrs by luciferase reporter gene assay relative to 17-beta estradiol
- Assay type: cell-based
- Measurement setup: HEK-293T

Would you please look over these solved cases?
O=C(O)CCCCCCC(=O)Nc1ccc(C2=C(c3ccc(O)cc3)C3CC(S(=O)(=O)Oc4ccccc4O)C2O3)cc1 (racemic) = 87%
Cc1cccc(C)c1OS(=O)(=O)C1CC2OC1C(c1ccc(NC(=O)CCCCCCC(=O)O)cc1)=C2c1ccc(O)cc1 (racemic) = 87%
O=C(O)CCCCCCC(=O)Nc1ccc(C2=C(c3ccc(O)cc3)C3CC(S(=O)(=O)Oc4ccc(Cl)cc4)C2O3)cc1 (racemic) = 188%
O=C(O)CCCCCCC(=O)Nc1ccc(C2=C(c3ccc(O)cc3)C3CC(S(=O)(=O)Oc4ccc5ccccc5c4)C2O3)cc1 (stereo not drawn) = 94%
O=C(O)CCCCCCC(=O)Nc1ccc(C2=C(c3ccc(O)cc3)C3CC(S(=O)(=O)Oc4cccc(O)c4)C2O3)cc1 (racemic) = 120%
COc1ccc(OS(=O)(=O)C2CC3OC2C(c2ccc(NC(=O)CCCCCCC(=O)O)cc2)=C3c2ccc(O)cc2)cc1 (racemic) = 137%
O=C(O)CCCCCCC(=O)Nc1ccc(C2=C(c3ccc(O)cc3)C3CC(S(=O)(=O)Oc4ccc(O)cc4)C2O3)cc1 (racemic) = 23%
O=C(O)CCCCCCC(=O)Nc1ccc(C2=C(c3ccc(O)cc3)C3CC(S(=O)(=O)Oc4ccc(C(F)(F)F)cc4)C2O3)cc1 (racemic) = 136%

Item O=C(O)CCCCCCC(=O)Nc1ccc(C2=C(c3ccc(O)cc3)C3CC(S(=O)(=O)Oc4ccc(Br)cc4)C2O3)cc1 (racemic) has what recorded Efficacy?
77%

Please do the same for COC(=O)CCCCCCC(=O)Nc1cccc(OS(=O)(=O)C2CC3OC2C(c2ccc(O)cc2)=C3c2ccc(O)cc2)c1 (stereo not drawn) as well.
91%

Cool, now O=C(CCCCCCC(=O)Nc1ccc(C2=C(c3ccc(O)cc3)C3CC(S(=O)(=O)Oc4cccc5ccccc45)C2O3)cc1)NO (racemic)
94%

Follow-up entry: O=C(CCCCCCC(=O)Nc1ccc(C2=C(c3ccc(O)cc3)C3CC(S(=O)(=O)Oc4ccc5ccccc5c4)C2O3)cc1)NO (stereo not drawn)
19%

Try this molecule next: O=C(O)CCCCCCC(=O)Nc1ccc(OS(=O)(=O)C2CC3OC2C(c2ccc(O)cc2)=C3c2ccc(O)cc2)cc1 (stereo not drawn)
89%

Same read-out for Cc1ccc(OS(=O)(=O)C2CC3OC2C(c2ccc(NC(=O)CCCCCCC(=O)O)cc2)=C3c2ccc(O)cc2)cc1 (racemic) ?
111%

How about this molecule: COc1ccccc1OS(=O)(=O)C1CC2OC1C(c1ccc(NC(=O)CCCCCCC(=O)NO)cc1)=C2c1ccc(O)cc1 (racemic)
74%

Next molecule: COc1ccccc1OS(=O)(=O)C1CC2OC1C(c1ccc(NC(=O)CCCCCCC(=O)O)cc1)=C2c1ccc(O)cc1 (racemic)
78%

Next molecule: O=C(O)CCCCCCC(=O)Nc1cccc(OS(=O)(=O)C2CC3OC2C(c2ccc(O)cc2)=C3c2ccc(O)cc2)c1 (stereo not drawn)
102%

Request: O=C(CCCCCCC(=O)Nc1ccc(C2=C(c3ccc(O)cc3)C3CC(S(=O)(=O)Oc4ccccc4)C2O3)cc1)NO (racemic)
92%
